Data origin, for the record: ChEMBL document CHEMBL3112479

- System: Pseudomonas aeruginosa
- Assay Method Text: Antimicrobial activity against Pseudomonas aeruginosa 2742 after 20 hrs by two-fold serial dilution technique
- Assay type: functional
- Run Conditions: Pseudomonas aeruginosa, 2742, 20 h
Overview of recorded MIC for various compounds

// known answers, use as guide
> print(dat)
                                        mol  result.value
1          O=C1CSC(=S)N1Cc1nnc(-c2ccccc2)o1    > 128 mg/L
2  O=C(O)c1ccc(/C=C2\SC(=S)N(Cc3nnc(-c4cccc(Cl)c4)o3)C2=O)cc1    > 128 mg/L
3      O=C1CSC(=S)N1Cc1nnc(-c2cccc(Cl)c2)o1    > 128 mg/L

Form: compound = "O=C(O)c1ccc(/C=C2\SC(=S)N([C@@H](Cc3ccccc3)c3nnc(-c4cccc(Br)c4)o3)C2=O)cc1" ; MIC = > 128 mg/L

Form: compound = "O=C1CSC(=S)N1Cc1nnc(-c2ccccc2Cl)o1" ; MIC = > 128 mg/L

Form: compound = "O=C1CSC(=S)N1Cc1nnc(-c2ccccc2Br)o1" ; MIC = > 128 mg/L
